Data origin: patent US7018642B2

System: P. fluorescens strain ATCC 13525
Assay Method Text: Biofilm prevention screen (96-well microplate, crystal violet)
Type: cell-based
Assay Context: Pseudomonas fluorescens, ATCC13525, 390 μM, positive = prevention, negative = enhancement of biofilm formation, quadruplicate, read-out: average percentage reduction of biofilm formed relative to DMSO controls
Attribute: inhibition at 390 µM
Endpoint Label: inhibition at 390 µM (%)

INSERT INTO assay_data (compound, recorded_number) VALUES
  ('CCCCCCCCNC(=O)[C@@H]1CCCCN1C(=O)OC(C)(C)C [Compound 19]', 10),
  ('CCCCCCNC(=O)C1CCCN1C(C)=O (racemic) [Compound 7]', -32),
  ('CCCCCCNC(=O)[C@@H]1CCN1C(=O)OC(C)(C)C [Compound 283]', 13),
  ('CCCCCCCCCCNC(=O)[C@@H]1CCN1C(=O)OC(C)(C)C [Compound 285]', -32),
  ('CCCCCCCCCCCCNC(=O)[C@@H]1CCCN1C(=O)OC(C)(C)C [Compound 160]', -18),
  ('CCCCCCCCCCCCNC(=O)[C@H]1CCCN1C(=O)OC(C)(C)C [Compound 159]', -13),
  ('CCCCCCCCCCNC(=O)C1CCCN1C(C)=O (stereo not shown) [Compound 9]', 0),
  ('CCCCCCCCCCNC(=O)[C@H]1CCCN1 [Compound 166]', 98),
  ('CCCCCCNC(=O)[C@@H]1CCCN1C(=O)OC(C)(C)C [Compound 10]', -6),
  ('CCCCCCCCNC(=O)[C@@H]1CCCCN1 [Compound 20]', 40),
  ('CCCCNC(=O)[C@H]1CCCN1 [Compound 162]', 11),
  ('CCCCCCCCCCCCNC(=O)[C@@H]1CCCN1 [Compound 168]', 93),
  ('CCCCCCCCNC(=O)[C@H]1CCCN1C(=O)OC(C)(C)C [Compound 154]', 11),
  ('CC(C)(C)OC(=O)N1CCC[C@@H]1C(=O)NCCCCCCCCCCCCNC(=O)[C@H]1CCCN1C(=O)OC(C)(C)C [Compound 225]', -14),
  ('CCCCCCCCNC(=O)[C@@H]1CCCCN1C(C)=O [Compound 21]', 20),
  ('CCCCCCCCCCNC(=O)[C@@H]1CCCN1 [Compound 32, L-proline n-decyl amide]', 95),
  ('CCCCCCNC(=O)[C@@H]1CCN1 [Compound 287]', 40),
  ('CCCCNC(=O)[C@@H]1CCCN1C(=O)OC(C)(C)C [Compound 155]', 4),
  ('CCCCCCCCNC(=O)[C@H]1CCCCN1C(C)=O [Compound 24]', -2);
